Target: CSNK1D (human) (UniProt P48730)
Sequence (P48730 whole entry, looked up): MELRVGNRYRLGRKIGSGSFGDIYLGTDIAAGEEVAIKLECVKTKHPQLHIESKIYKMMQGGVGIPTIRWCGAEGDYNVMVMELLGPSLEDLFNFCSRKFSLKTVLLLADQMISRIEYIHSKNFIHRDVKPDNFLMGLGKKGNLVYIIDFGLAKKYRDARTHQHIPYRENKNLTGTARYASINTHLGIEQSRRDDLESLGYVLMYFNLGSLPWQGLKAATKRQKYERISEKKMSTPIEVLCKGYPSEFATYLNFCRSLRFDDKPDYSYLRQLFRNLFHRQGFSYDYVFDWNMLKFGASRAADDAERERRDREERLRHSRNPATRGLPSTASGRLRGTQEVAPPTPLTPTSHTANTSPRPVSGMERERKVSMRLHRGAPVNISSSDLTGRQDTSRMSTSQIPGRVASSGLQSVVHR
Test: KINOMEscan competition binding
Conditions: compound 10.0 µM
parameter: kinase still bound, per cent of control (%)

{"columns": ["input.smiles", "parameter", "measured.result"],
 "data": [
  ["OCCCNc1cc(-c2ccnc(Nc3cccc(Cl)c3)n2)ccn1", "kinase still bound, per cent of control", 100],
  ["C[C@@H](Oc1cc(-n2cnc3ccc(CN4CCN(C)CC4)cc32)sc1C(N)=O)c1ccccc1C(F)(F)F", "kinase still bound, per cent of control", 100],
  ["Cc1ccc(C(=O)Nc2cccc(C(F)(F)F)c2)cc1Nc1cncc(C(N)=O)c1", "kinase still bound, per cent of control", 100],
  ["Cc1ccc(NC(=O)c2cccc(C(C)(C)C#N)c2)cc1Nc1ccc2ncn(C)c(=O)c2c1", "kinase still bound, per cent of control", 100],
  ["CCN1CCN(Cc2ccc(Nc3ncc4c(n3)N(C)c3ccccc3C(=O)N4C)cc2C(F)(F)F)CC1", "kinase still bound, per cent of control", 32],
  ["C=CC(=O)Nc1cccc(Oc2nc(Nc3ccc(N4CCN(C)CC4)cc3OC)ncc2Cl)c1", "kinase still bound, per cent of control", 100],
  ["CCCS(=O)(=O)Nc1ccc(F)c(C(=O)c2c[nH]c3ncc(-c4ccc(Cl)cc4)cc23)c1F", "kinase still bound, per cent of control", 97],
  ["C=CC(=O)Nc1cc(NC(=O)c2ccc(C)c(NC(=O)c3ccno3)c2)cc(C(F)(F)F)c1", "kinase still bound, per cent of control", 100],
  ["C=CC(=O)Nc1cccc(Nc2nc(N[C@H]3CC[C@H](N(C)C)CC3)nc3c2ncn3C(C)C)c1", "kinase still bound, per cent of control", 0.75],
  ["CCOc1cc2ncc(C#N)c(Nc3ccc(OCc4ccccn4)c(Cl)c3)c2cc1NC(=O)/C=C/CN(C)C", "kinase still bound, per cent of control", 60],
  ["O=C1Nc2ccc(I)cc2/C1=C/c1cc(Br)c(O)c(Br)c1", "kinase still bound, per cent of control", 72],
  ["Cc1ccc2nc(NCCN)c3ncc(C)n3c2c1", "kinase still bound, per cent of control", 45],
  ["COc1cc(C(=O)NC2CCN(C)CC2)ccc1Nc1ncc2c(n1)N(C1CCCC1)CCC(=O)N2C(C)C", "kinase still bound, per cent of control", 100],
  ["N#Cc1c(NC(=O)c2cccc3ccccc23)sc2c1CCCC2", "kinase still bound, per cent of control", 100]
]}
